- System: CP252
- method: qHTS profiling for inhibitors of Plasmodium falciparum proliferation (AID 504749); also: nearly all actives have a fitted effect of over 60% in size
- test.settings: P. falciparum in erythrocytes, SYBR Green DNA, 72 h; series mostly up to 28.7 µM
Records with an inconclusive call do not appear. Activity calls are given as the source filed them. Calls follow the shape of the dose curve; as a rule, active = well fitted inhibition curve with a large enough effect; inconclusive = small, poorly fitted or top-dose-only effect; inactive = flat fitted curve, though single readings scatter.
API: response.call in active, inactive

# example entries with known answers
Request: Status in this test for COc1ccccc1O ?
Response: inactive

Request: Answer briefly: the call reported for CCOC(=O)[C@H](CCc1ccccc1)N[C@@H](C)C(=O)N1C(=O)N(C)C[C@H]1C(=O)O in this assay.
Response: inactive

Request: Please let me know the test result on file for CC[C@@]1(c2ccccc2)NC(=O)N(C)C1=O .
Response: inactive

Request: What is the recorded call for this compound in the test? CC(=O)CCC(=O)O
Response: inactive

Request: Entry CN1CCC[C@@H]1Cc1c[nH]c2ccc(CCS(=O)(=O)c3ccccc3)cc12 : call = ?
Response: inactive

Request: Status in this test for OCc1cc(C(O)CNCCCCCCOCCCCc2ccccc2)ccc1O (stereo unspecified) ?
Response: inactive

Request: What call does the record list for Cc1cc(N)c2ccccc2[n+]1CCCCCCCCCC[n+]1c(C)cc(N)c2ccccc21 ?
Response: active

Request: Dear all, I need the recorded test outcome for [O-][n+]1cccc(CO)c1 , thank you.
Response: inactive

***
Request: Called result for CCN(CC)CCSC(=O)C(c1ccccc1)c1ccccc1
Response: inactive

Request: Please indicate how the test categorized O=c1cc[nH]c(=S)[nH]1 .
Response: inactive

Request: Recorded test call requested for CCCOC(=O)c1ccccc1
Response: inactive
